biological target: UniProt:P19793; assay: Ability to activate gene expression at Retinoic acid receptor RXR-alpha was evaluated in a cotransfection assay.
Threshold check on EC50: strictly below 0.5 µM is 1; on or above 0.5 µM is -1.

C=C(c1ccc(C(=O)O)cc1)c1cc2c(cc1C)CCCC2(C)C: -1

Does the reported EC50 of `Cc1cc2c(cc1C(=O)c1cccc(C(=O)O)c1)C(C)(C)CCC2(C)C` stay below 0.5 µM? -1

Does the reported EC50 of C=C(c1ccc(C(=O)O)cc1)c1cc2c(cc1C)C(C)(C)C(C)C2(C)C (configuration not stated) stay below 0.5 µM? 1

---

Target protein (sequence): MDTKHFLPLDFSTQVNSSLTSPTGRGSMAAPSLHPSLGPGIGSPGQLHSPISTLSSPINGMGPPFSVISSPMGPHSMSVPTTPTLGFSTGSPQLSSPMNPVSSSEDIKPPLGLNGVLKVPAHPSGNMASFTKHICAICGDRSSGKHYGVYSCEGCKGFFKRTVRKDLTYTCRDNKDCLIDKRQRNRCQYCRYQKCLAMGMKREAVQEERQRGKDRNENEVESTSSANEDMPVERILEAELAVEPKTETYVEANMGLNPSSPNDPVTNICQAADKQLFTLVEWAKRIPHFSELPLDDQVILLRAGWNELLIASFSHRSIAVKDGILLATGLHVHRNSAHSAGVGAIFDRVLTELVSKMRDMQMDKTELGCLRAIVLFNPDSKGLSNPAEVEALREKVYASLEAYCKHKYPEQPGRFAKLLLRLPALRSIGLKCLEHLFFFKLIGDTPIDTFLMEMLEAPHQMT
pKd: −log10 of the molar value.
What pKd was measured for each of the following?

Please review the following examples before continuing.
Cc1cc2c(cc1C(C)(C)c1ccc(C(=O)O)cc1)C(C)(C)CCC2(C)C: < 6.00
Cc1cc2c(cc1C(=O)c1ccccc1C(=O)O)C(C)(C)CCC2(C)C: < 6.00

// moving on: another record for pKd
Find the recorded pKd belonging to `C=C(c1ccc(C(=O)O)cc1)c1cc2c(cc1C)CCCC2(C)C` and report it. < 6.00

---

molecular target: Retinoic acid receptor RXR-alpha (Homo sapiens); assay: Ability to activate gene expression at Retinoic acid receptor RXR-alpha was evaluated in a cotransfection assay.
endpoint.name: pEC50
Answers are plain numbers, as −log10 of the molar value.

# batch: return pEC50 for each of the 8 compounds below
1. Cc1cc2c(cc1Cc1ccc(C(=O)O)cc1)C(C)(C)CCC2(C)C
2. CC(C)=C(c1ccc(C(=O)O)cc1)c1cc2c(cc1C)C(C)(C)CCC2(C)C
3. Cc1cc2c(cc1C1(c3ccc(C(=O)O)cc3)CO1)C(C)(C)CCC2(C)C (centres undefined)
4. Cc1cc2c(cc1C(C)(C)c1ccc(C(=O)O)cc1)C(C)(C)CCC2(C)C
5. Cc1cc2c(cc1C1(c3ccc(C(=O)O)cc3)CC1)C(C)(C)CCC2(C)C
6. C=C(c1ccc(C(=O)O)cc1)c1cc2c(cc1C)C(C)(C)CCC2
7. Cc1cc2c(cc1Oc1ccc(C(=O)O)cc1)C(C)(C)CCC2(C)C
8. Cc1cc2c(cc1C(C)c1ccc(C(=O)O)cc1)C(C)(C)CCC2(C)C (centres undefined)

1. 6.34
2. 6.52
3. 7.29
4. 6.19
5. 7.59
6. 5.92
7. 6.00
8. 6.33

Each recorded value in this set is attributed to ChEMBL document CHEMBL1128507.
